testSummary: physchem
conditionDetails: water
Recorded solubility, one value per entry.

CC(CN1CC(=O)NC(=O)C1)N1CC(=O)NC(=O)C1 (racemic)	~1000 µg/mL

Kindly review the next compound as well.
Given item C[C@H](CN1CC(=O)NC(=O)C1)N1CC(=O)NC(=O)C1 , the value recorded as its solubility is ~11000 µg/mL

Origin of the recorded values: patent US3941790A
